B1: PTPLAD1 (parent)
chain: YSFYMLTCIDMDWKVLTWLRYTLW

# Variants of: B1
# protocol summary: protein stability index of a GFP-peptide fusion (GPS, HEK-293T) (PSI 1-6); higher = more stable;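 note: lentivirally expressed fusions sorted by FACS into six bins by GFP to DsRed ratio, PSI derived from sequencing read proportions per bin multiplied by bin number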
# measurement setup: c terminus: a fixed tail appended
parameter: protein stability index
Please give only the number in your answer, with no unit.

protein stability index in this record for `T7P` : 2.94

protein stability index in this record for `S2H` : 2.1

protein stability index in this record for `S2R` : 2.84

protein stability index in this record for `L23C` : 4.3

protein stability index in this record for `T22V` : 1.99

protein stability index in this record for `W13P` : 3.04

protein stability index in this record for `M11C` : 3.43

protein stability index in this record for `T7G` : 1.4

protein stability index in this record for `M11P` : 2.49

protein stability index in this record for `F3I` : 3.74

protein stability index in this record for `Y1V` : 4.18

protein stability index in this record for `T7Y` : 3.62

protein stability index in this record for `S2K` : 5.08

protein stability index in this record for `T22M` : 2.12

protein stability index in this record for `W18H` : 4.4

protein stability index in this record for `Y4G` : 2.99

protein stability index in this record for `V15I` : 4.29

protein stability index in this record for `T17C` : 1.67

protein stability index in this record for `T22Y` : 2.26

protein stability index in this record for `S2M` : 2.26

protein stability index in this record for `D12N` : 2.65

protein stability index in this record for `L19D` : 4.18

protein stability index in this record for `L16N` : 4.69

protein stability index in this record for `C8Q` : 3.01

protein stability index in this record for `Y4A` : 2.33

protein stability index in this record for `V15W` : 2.22

protein stability index in this record for `L19K` : 2.22

protein stability index in this record for `Y4M` : 2.53

protein stability index in this record for `K14D` : 2.16

protein stability index in this record for `L6D` : 2.56

protein stability index in this record for `T17Q` : 2.82

protein stability index in this record for `L19Y` : 2.91

protein stability index in this record for `T7N` : 2.85

protein stability index in this record for `Y21W` : 1.84

protein stability index in this record for `W24I` : 3.4

protein stability index in this record for `R20G` : 3

protein stability index in this record for `I9W` : 1.96
